B1: Azoarcus group I ribozyme (parent)
chain: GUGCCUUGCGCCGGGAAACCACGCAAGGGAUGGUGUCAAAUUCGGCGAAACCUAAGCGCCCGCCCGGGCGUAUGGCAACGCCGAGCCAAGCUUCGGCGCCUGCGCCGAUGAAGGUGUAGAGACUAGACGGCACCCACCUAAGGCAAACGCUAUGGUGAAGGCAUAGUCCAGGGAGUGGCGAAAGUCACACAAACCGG

Variants of: B1
method description: reverse-splicing fitness (ratio to wild type); higher = more active; in vitro selection; Mg2+ level not given
Assignment: determine reported reverse-splicing fitness for the given variants.
No unit in the answer, please; the number alone is enough.

Using the record for C82G A111U C150G U176A , report its reverse-splicing fitness.
0.01

Now consider C82G A120C A145C C150A C169U U176C and answer again.
0.0101

Now consider C82G A111G A120C A145C C150G C169A U176C and answer again.
0.0103
